TARGET_OR_SYSTEM: T1, HLA-A*0101 (human)
T1 construct: also called HLA-A1
MEASUREMENT_NOTES: competition with 125I-labelled probe peptide for purified HLA-A*0101, gel filtration; relative to standard peptide
Assign labels as follows, please: met for relative binding ratio (IC50 of standard peptide / IC50 of test peptide) below 0.01 relative binding ratio; not met for relative binding ratio (IC50 of standard peptide / IC50 of test peptide) equal to or exceeding 0.01 relative binding ratio.

- BINDER: "DMGDLVDAEEY [HER2/neu peptide, position 1013, 11 amino acids]"
  CLASSIFICATION: "met"
- BINDER: "AFSPAFDNLYY [HER2/neu peptide, position 1212, 11 amino acids]"
  CLASSIFICATION: "not met"
- BINDER: "HQSDVWSY [HER2/neu peptide, position 901, 8 amino acids]"
  CLASSIFICATION: "met"
- BINDER: "LQDIQEVQGY [HER2/neu peptide, position 74, 10 amino acids]"
  CLASSIFICATION: "met"
- BINDER: "EADQCVACAHY (also called Her2/neu.580) [HER2/neu peptide, position 580, 11 amino acids]"
  CLASSIFICATION: "not met"
- BINDER: "AFSPAFDNLY [HER2/neu peptide, position 1212, 10 amino acids]"
  CLASSIFICATION: "met"
- BINDER: "QIAKGMSY [HER2/neu peptide, position 828, 8 amino acids]"
  CLASSIFICATION: "met"
- BINDER: "CSKPCARVCY [HER2/neu peptide, position 334, 10 amino acids]"
  CLASSIFICATION: "met"
- BINDER: "MGDLVDAEEY [HER2/neu peptide, position 1014, 10 amino acids]"
  CLASSIFICATION: "not met"
- BINDER: "KCSKPCARVCY [HER2/neu peptide, position 333, 11 amino acids]"
  CLASSIFICATION: "met"
- BINDER: "PTAENPEY [HER2/neu peptide, position 1241, 8 amino acids]"
  CLASSIFICATION: "met"
- BINDER: "SGAFGTVY [HER2/neu peptide, position 728, 8 amino acids]"
  CLASSIFICATION: "met"
- BINDER: "ETLEEITGY [HER2/neu peptide, position 401, 9 amino acids]"
  CLASSIFICATION: "not met"
- BINDER: "ASPLDSTFY [HER2/neu peptide, position 997, 9 amino acids]"
  CLASSIFICATION: "not met"
- BINDER: "ASCVTACPY (also called Her2/neu.293) [HER2/neu peptide, position 293, 9 amino acids]"
  CLASSIFICATION: "not met"
- BINDER: "NKEILDEAY [HER2/neu peptide, position 764, 9 amino acids]"
  CLASSIFICATION: "met"
- BINDER: "GASCVTACPY [HER2/neu peptide, position 292, 10 amino acids]"
  CLASSIFICATION: "met"
- BINDER: "FSPAFDNLY [HER2/neu peptide, position 1213, 9 amino acids]"
  CLASSIFICATION: "not met"
- BINDER: "GSGAFGTVY [HER2/neu peptide, position 727, 9 amino acids]"
  CLASSIFICATION: "met"
